Recorded values, source ChEMBL document CHEMBL1201862.

tested on: HCT-15
Exam item: assign Yes to entries whose GI50 is below 20 µM and No to entries at or above 20 µM. Note that a value of exactly 20 µM receives No.

Compound: Nc1ccc(Oc2ccc(C34CC5CC6C3CC3CC4C(C5)C6(c4ccc(Oc5ccc(N)cc5)cc4)C3)cc2)cc1
Class: No
--
Compound: O=C(c1ccccc1)C(C(=O)c1ccccc1)C1(O)C(=O)c2ccccc2C1=O
Class: No
--
Compound: Cc1ccc2cc3cccc(C(=O)NCCN(C)C)c3nc2c1
Class: Yes
--
Compound: COc1ccc(-c2nnc(CCCCCCCCc3nnc(-c4ccc(OC)cc4)n3N)n2N)cc1
Class: No
--
Compound: COC(=O)c1c(C)oc2ccc(OC(C)=O)cc12
Class: No
--
Compound: CC(=O)OC1CC2(C)C(=CC1C1SCCS1)CCC1C2CCC2(C)C(OC(C)=O)CCC12 (centres undefined)
Class: No
--
Compound: O=C(O)[C@@H](NS(=O)(=O)c1ccc2ccccc2c1)c1ccccc1
Class: No
--
Compound: CCC(=O)Oc1ccc2c(c1)c(=O)c1c(NCCCN(C)C)ccc3nnn2c31
Class: Yes
--
Compound: Nc1nc(SCCc2ccccc2)c2nc[nH]c2n1
Class: No
--
Compound: O=c1oc2ccc(Cl)cc2cc1-c1cn2ccsc2n1
Class: No
--
Compound: CC(C)[Si](OC1=C(C(=O)N(C)c2ccccc2Cl)CCCCC1)(C(C)C)C(C)C
Class: No
--
Compound: CC(=O)c1c2c(c3ccccc3c1O)O[C@@H]1OCC[C@H]21
Class: No
--
Compound: O=c1c2sc3nc(NCCN4CCCCC4)ncc3c2ncn1-c1ccccc1
Class: No
--
Compound: CC(=O)OC(C)(C)/C=C/C(=O)[C@](C)(O)[C@H]1[C@H](O)C[C@@]2(C)[C@@H]3CC=C4[C@@H](C[C@H](O)C(=O)C4(C)C)[C@]3(CO)C(=O)C[C@]12C [CUCURBITACIN A]
Class: Yes
--
Compound: CN(C)CCNC(=O)c1cccc2c1Oc1c(cccc1[N+](=O)[O-])O2
Class: Yes
--
Compound: Cc1cc(S(=O)(=O)Nc2nc(Nc3ccccc3)n[nH]2)c(SSc2cc(Cl)c(C)cc2S(=O)(=O)Nc2nc(Nc3ccccc3)n[nH]2)cc1Cl
Class: No
--
Compound: Oc1ccc(NCn2c(=S)sc3ccccc32)cc1
Class: No
--
Compound: COc1cccc2c1CCc1sc(CN3CCN(C)CC3)nc1-2
Class: No
--
Compound: COC(=O)/C=C/c1cc(O)c2c(c1)[C@H](C(=O)OC)[C@@H](c1ccc(O)c(O)c1)O2
Class: Yes
--
Compound: Cc1cc2c3ccccc3n(C)c2c2c1C(=O)C=CC2=O
Class: Yes
--
Compound: Cc1c(CCCl)c(Cl)n2c(nc3ccccc32)c1C#N
Class: Yes
--
Compound: COc1nc2cccc(C(O)c3ccccc3)c2nc1-c1ccccc1 (centres undefined)
Class: Yes
--
Compound: Cc1ccc(S(=O)(=O)N(CC(=O)O)c2ccccc2)cc1
Class: No
--
Compound: CN(C)C(=N)/N=C(\N)Nc1cccc(Cl)c1
Class: No
--
Compound: CC(=O)OC1(C(C)=O)CC2(c3ccccc3)OC1(c1ccccc1)c1ccccc12 (centres undefined)
Class: Yes
--
Compound: O=C(O)/C(Cc1ccnc2ccccc12)=N\O
Class: No
--
Compound: COC(=O)C1=CC(=O)OC1(OO)c1ccc(Br)cc1 (centres undefined)
Class: No
--
Compound: COc1cc(-c2nc3ccccn3c2/N=C/c2cc(Br)cc(Br)c2O)ccc1O
Class: Yes
--
Compound: CCOC(=O)N1CC2(C(=O)OC)C=CC1C(C(=O)OC)C2 (centres undefined)
Class: No
--
Compound: O=P1(c2ccccc2)Nc2ccccc2SSc2ccccc2N1
Class: Yes
--
Compound: Sc1nnc(NNc2ccccc2)n1Nc1ccccc1
Class: Yes
--
Compound: NC1=C(C(=O)O)C(=O)C(Nc2c(O)cccc2C(=O)O)=CC1=O
Class: No
--
Compound: OCCN(CCO)c1nc(N2CCCCC2)c2nc(N(CCO)CCO)nc(N3CCCCC3)c2n1 [DIPYRIDAMOLE]
Class: No
--
Compound: C=C=C(C(=O)OC)[S+]([O-])c1ccc([N+](=O)[O-])cc1[N+](=O)[O-] (centres undefined)
Class: No
--
Compound: NNC(=O)CCc1ccc2ccc3ccccc3c2c1
Class: No
--
Compound: COI1NC(=O)c2ccccc21
Class: No
--
Compound: CC(=O)Nc1nc2c(=O)c3ccccc3sc2s1
Class: No
--
Compound: CCCCn1c2c(n(CCCC)c1=S)-c1c(n(CCCC)c(=S)n1CCCC)S[Se][Se]S2
Class: Yes

---

system: NCI/ADR-RES; experiment: NCI tumour cell line growth inhibition, 48 h
The source made the active and inactive calls. Rule as the data show it: active = GI50 up to about 1.1 µM and inactive = higher.
Outcome codes: class 1 for active, class 0 for inactive

Molecule: COC(=O)CCCC(=O)O
Class: class 0
--
Molecule: CCCS(=O)OC1C(C2COC(C)(C)O2)OC2OC(C)(C)OC21 (configuration not stated)
Class: class 0
--
Molecule: Cc1cc2c(cc1Cl)SC(NNCCO)=NS2(=O)=O
Class: class 0
--
Molecule: Oc1ccc2cc(Br)ccc2c1-c1c(O)ccc2ccc(Br)cc12
Class: class 0
--
Molecule: CC(=O)O[C@H]1C(=O)[C@@]2(C)C([C@H](OC(=O)c3ccccc3)[C@]3(O)C[C@H](OC(=O)[C@H](O)[C@@H](NC(=O)c4ccc(Cl)cc4)c4ccccc4)C(C)=C1C3(C)C)C1(OC(C)=O)CO[C@@H]1C[C@@H]2O (some centres not stated)
Class: class 0
--
Molecule: CSc1ccn(C2CC(F)C(CO)O2)c(=O)n1 (configuration not stated)
Class: class 0
--
Molecule: S=c1cc(-c2ccc3c(c2)OCO3)s[nH]1
Class: class 0
--
Molecule: Nc1ncnc2oc(C3OC(COC(=O)c4ccccc4)C(OC(=O)c4ccccc4)C3OC(=O)c3ccccc3)nc12 (configuration not stated)
Class: class 0
--
Molecule: CCOC(=O)/C(C#N)=C/c1ccc(SCc2ccco2)c([N+](=O)[O-])c1
Class: class 0
--
Molecule: c1cc(C2=NCCO2)c2ccsc2c1
Class: class 0
--
Molecule: NCCCNCCCNCCCN
Class: class 0
--
Molecule: COc1cc(CCCOC2OC(COC3OCC(O)C(O)C3O)C(O)C(O)C2O)cc2cc(-c3ccc4c(c3)OCO4)oc12 (configuration not stated)
Class: class 0
--
Molecule: CNC(=O)OCc1nc(SC2CCCCO2)n(C)c1COC(=O)NC (configuration not stated)
Class: class 0
--
Molecule: Nc1ccc(Oc2ccc(C34CC5CC6C3CC3CC4C(C5)C6(c4ccc(Oc5ccc(N)cc5)cc4)C3)cc2)cc1
Class: class 0
--
Molecule: OC(COc1ccc(Cl)cc1Cl)CN1CCCC1 (configuration not stated)
Class: class 0
--
Molecule: CC(C)N1CC2CN(Cc3ccccc3)CC(C1)C2=O
Class: class 0
--
Molecule: c1ccc(CC2(c3cc4ccccc4[nH]3)OCCO2)nc1
Class: class 0
--
Molecule: O=C1CC(c2cccc(Cl)c2)n2cccc21 (configuration not stated)
Class: class 0
--
Molecule: O=C1c2ccccc2CC12Cc1ccc3c(c1C2)CCC3 (configuration not stated)
Class: class 0
--
Molecule: C/C(=C\COP(=O)(O)OP(=O)(O)O)CCCCCCOCc1ccccc1
Class: class 0
--
Molecule: Cc1ccc(OCC2OC(n3cnc4c(Cl)nc(Cl)nc43)CC2Oc2ccc(C)cc2)cc1 (configuration not stated)
Class: class 0
--
Molecule: OCCN(CCO)c1nc(N2CCCCC2)c2nc(N(CCO)CCO)nc(N3CCCCC3)c2n1 [DIPYRIDAMOLE]
Class: class 0
--
Molecule: CC(C)NC(=O)CN1CCN(C2=C(Cl)C(=O)c3c(O)ccc(O)c3C2=O)CC1
Class: class 0
--
Molecule: Cc1cc2c(s1)C(=O)c1sccc1C2=O
Class: class 1
--
Molecule: N#Cc1c(N)c2c(c(-c3ccccc3)c1-c1ccccc1)C(=O)N(Nc1ccccc1)C2=O
Class: class 0
--
Molecule: COc1ccc(-c2c(C(C)=O)c(-c3ccccc3)n(C3OC(CO)C(O)C(O)C3O)c(=S)c2C#N)cc1 (configuration not stated)
Class: class 0
--
Molecule: CC1(O)CC23CC1CCC2(C)C12CCCC(C)(C(=O)O1)C2CC3O (configuration not stated)
Class: class 0
--
Molecule: COc1cc([C@@H]2c3cc4c(cc3[C@H](OC3OC5COC(c6ccco6)OC5C(O)C3O)C3COC(=O)[C@@H]32)OCO4)cc(OC)c1OC (some centres not stated)
Class: class 0
--
Molecule: COc1cccc(N(CN2C(=O)CCC2C(=O)O)C(C)=O)c1 (configuration not stated)
Class: class 0
--
Molecule: C[C@@H]1CC[C@@H](C)[C@](C)(CCc2ccoc2)C/C=C\C=C/1C(=O)O
Class: class 0
--
Molecule: Cc1cc(C)n2c(nc3ccccc32)c1C#N
Class: class 0
--
Molecule: CC(=O)OCC1OC(Nn2c(=O)[nH]c3ccccc3c2=O)C(OC(C)=O)C(OC(C)=O)C1OC(C)=O (configuration not stated)
Class: class 0
--
Molecule: COC(=S)OC1CC(n2cnc3c(N)ncnc32)OC1CO[Si](C)(C)C(C)(C)C (configuration not stated)
Class: class 0
--
Molecule: CC[N+](C)(CC)Cc1ccccc1[N+](=O)[O-]
Class: class 0
--
Molecule: Nc1nc(Nc2ccccc2)c2[nH]cnc2n1
Class: class 0
--
Molecule: COC1(C)CCC(OS(C)(=O)=O)CO1 (configuration not stated)
Class: class 0
--
Molecule: COCc1cc2c(cc1/C=C/[N+](=O)[O-])OCO2
Class: class 0
--
Molecule: O=c1[nH]nc(-c2ccccc2)c2[nH]c3c4ccccc4ccc3c12
Class: class 1
--
Molecule: O=[N+]([O-])c1ccccc1S(=O)(=O)c1cccc2c1NCCC2
Class: class 0
--
Molecule: CC(=O)OC1CC2(O)C(CCC3(C)C(c4ccc(=O)oc4)CCC32O)C2(C)C1=CC(O)C1OC12 (configuration not stated)
Class: class 1
--
Molecule: Cc1cccc(C(O)c2ccncc2)c1O (configuration not stated)
Class: class 0
--
Molecule: O=c1cc(-c2ccccc2)oc2ccc(Cl)cc12 [6-CHLOROFLAVONE]
Class: class 0
